Target: PI3Kδ (p110δ/p85α) Recombinant Human Protein (Homo sapiens (Human))
Sequence (O00329 whole entry): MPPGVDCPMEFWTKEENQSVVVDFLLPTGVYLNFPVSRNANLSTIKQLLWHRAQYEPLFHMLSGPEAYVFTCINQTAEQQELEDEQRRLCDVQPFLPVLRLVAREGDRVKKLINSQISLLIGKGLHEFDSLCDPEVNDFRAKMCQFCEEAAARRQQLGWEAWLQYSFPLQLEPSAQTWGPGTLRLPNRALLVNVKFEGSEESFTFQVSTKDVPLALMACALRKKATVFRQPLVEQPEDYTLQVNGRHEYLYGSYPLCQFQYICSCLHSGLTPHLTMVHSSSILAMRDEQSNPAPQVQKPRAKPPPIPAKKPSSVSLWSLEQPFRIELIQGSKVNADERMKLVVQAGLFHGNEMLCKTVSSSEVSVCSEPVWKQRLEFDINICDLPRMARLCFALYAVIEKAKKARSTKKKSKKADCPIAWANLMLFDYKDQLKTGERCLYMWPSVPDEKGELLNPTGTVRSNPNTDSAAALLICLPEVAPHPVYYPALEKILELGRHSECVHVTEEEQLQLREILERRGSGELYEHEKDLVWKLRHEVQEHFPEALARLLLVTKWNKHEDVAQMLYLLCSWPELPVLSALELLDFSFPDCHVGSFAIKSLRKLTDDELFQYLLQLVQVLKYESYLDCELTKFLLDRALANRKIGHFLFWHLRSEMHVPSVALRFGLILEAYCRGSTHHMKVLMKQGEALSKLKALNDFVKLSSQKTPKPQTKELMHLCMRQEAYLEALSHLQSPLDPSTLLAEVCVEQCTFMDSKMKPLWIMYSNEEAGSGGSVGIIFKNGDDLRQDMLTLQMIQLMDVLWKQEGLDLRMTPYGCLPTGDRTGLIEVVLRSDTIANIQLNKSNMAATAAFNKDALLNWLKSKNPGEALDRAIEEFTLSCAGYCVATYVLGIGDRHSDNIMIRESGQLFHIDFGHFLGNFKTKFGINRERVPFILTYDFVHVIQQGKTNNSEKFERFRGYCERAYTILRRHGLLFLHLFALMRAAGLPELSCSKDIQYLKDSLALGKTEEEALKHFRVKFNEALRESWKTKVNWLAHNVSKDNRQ
Sequence (P27986 whole entry partner): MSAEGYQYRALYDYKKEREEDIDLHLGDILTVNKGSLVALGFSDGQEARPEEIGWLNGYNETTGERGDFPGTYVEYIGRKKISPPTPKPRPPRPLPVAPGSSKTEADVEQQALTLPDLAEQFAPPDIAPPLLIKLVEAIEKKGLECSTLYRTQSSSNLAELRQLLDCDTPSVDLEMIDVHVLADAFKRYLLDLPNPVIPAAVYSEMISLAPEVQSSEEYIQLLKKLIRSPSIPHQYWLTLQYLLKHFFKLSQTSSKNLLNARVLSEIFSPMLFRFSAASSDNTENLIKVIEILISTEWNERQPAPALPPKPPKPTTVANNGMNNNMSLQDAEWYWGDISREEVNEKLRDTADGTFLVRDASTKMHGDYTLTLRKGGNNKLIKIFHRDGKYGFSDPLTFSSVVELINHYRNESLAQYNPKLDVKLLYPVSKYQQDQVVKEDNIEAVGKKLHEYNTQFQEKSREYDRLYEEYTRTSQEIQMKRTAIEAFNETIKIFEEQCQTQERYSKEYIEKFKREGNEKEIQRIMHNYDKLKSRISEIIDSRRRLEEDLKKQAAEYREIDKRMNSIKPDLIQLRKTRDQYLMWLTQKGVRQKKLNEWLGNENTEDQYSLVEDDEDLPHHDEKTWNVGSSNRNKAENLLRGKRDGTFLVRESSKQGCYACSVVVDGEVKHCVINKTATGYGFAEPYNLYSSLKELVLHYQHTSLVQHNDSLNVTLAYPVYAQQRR
Assay: PI3Kδ scintillation proximity assay
Format: biochemical
Details: 20 μM PIP2, 2 μM ATP, 3.4 nM PI3Kδ, 120 min, room temperature; read-out: PI3Kδ IC50
Counter-ions that a name gives are not always drawn.
readout-type: IC50

| compound | IC50 |
| --- | --- |
| Cc1ccc(C(C)(O)C(F)(F)F)cc1-c1cnc2c(N)nc(C(F)(F)F)cn12 (single isomer, unassigned) [Example 6] | 100 to 500 nM |
| Cc1ccc(C(C)(O)C(F)(F)F)cc1-c1cnc2c(N)nc(C(=O)NCC(C)(C)O)cn12 (single isomer, unassigned) [Example 63] | 100 to 500 nM |
| Cc1cc(-c2cn3c(-c4cc(C(C)(O)C(F)F)ccc4C)cnc3c(N)n2)n(C)n1 (stereo not drawn) [Example 41] | 100 to 500 nM |
| CC(O)(c1cc(-c2cnc3c(N)nc(C(F)(F)F)cn23)c2ccn(S(=O)(=O)c3ccccc3)c2c1)C(F)(F)F (racemic) [Example 224] | 500 to 2000 nM |

Would you please give the reported IC50 of Cc1ccc(C(O)C(F)(F)F)cc1-c1cnc2c(N)nc(C(F)(F)F)cn12 (stereo not drawn) [Example 23, trifluoroacetate salt] with PI3Kδ (p110δ/p85α) Recombinant Human Protein (Homo sapiens (Human))? 500 to 2000 nM

Please tell me the measured IC50 for Cc1ccc(C(O)(CCNC2CCOCC2)C(F)(F)F)cc1-c1cnc2c(N)nc(C(F)(F)F)cn12 (stereo not drawn) [Example 17, bis(2,2,2-trifluoroacetate)] ; system: PI3Kδ (p110δ/p85α) Recombinant Human Protein (Homo sapiens (Human)). 500 to 2000 nM
